experiment: Mouse 6-hour PK study; settings: in vivo; mouse 6-hour PK; read-out: AUClast 0-6 hr
MEASUREMENT TYPE: AUC(0-t) (ng·h/mL)
Give the number; ng·h/mL is assumed, so skip it.

// recorded AUC(0-t) for CC(C)c1cccc(=O)c(O)c1 [hinokitiol, reference compound] : 584

====

experiment: Human liver microsomal stability assay; type: in vitro ADME; conditions: human, microsomes
MEASUREMENT TYPE: half-life

// recorded half-life for O=c1ccccc(OC2CCC2)c1O : 100 to 150 min

// recorded half-life for O=c1ccccc([C@H]2CCCO2)c1O (single isomer, unassigned) : 25 to 50 min

// recorded half-life for CC(C)c1cccc(F)c(=O)c1O : 25 to 50 min

// recorded half-life for CC(C)c1ccc(F)c(=O)c(O)c1 : 25 to 50 min

// recorded half-life for Cc1cccc(F)c(=O)c1O : > 150 min

// recorded half-life for CC(C)c1cccc(=O)c(O)c1F : > 150 min

// recorded half-life for O=c1ccccc([C@@H]2CCCO2)c1O (single isomer, unassigned) : 50 to 100 min

====

Exercise: state measured half-life for each of the molecules provided.
test: Mouse 6-hour PK study; details: mouse, in vivo

// recorded half-life for O=c1ccccc(C2CCOCC2)c1O [Ex. 8] : 1.25 to 4.99 h

// recorded half-life for O=c1ccccc([C@H]2CCCO2)c1O (single isomer, unassigned) [Ex. 41] : < 1.25 h

// recorded half-life for CC(C)c1ccc(F)c(=O)c(O)c1 [Ex. 1] : 1.25 to 4.99 h

// recorded half-life for O=c1cccc(C2CC3CCC(C2)O3)cc1O (centres unmarked) [Ex. 6] : 1.25 to 4.99 h

// recorded half-life for CC(C)c1cccc(=O)c(O)c1F [Ex. 2] : 1.25 to 4.99 h

====

assay: Mouse 6-hour PK study; details: in vivo; mouse 6-hour PK; read-out: Cmax
MEASUREMENT TYPE: Cmax (ng/mL)
Give the number; ng/mL is assumed, so skip it.

// recorded Cmax for CC(C)c1cccc(=O)c(O)c1 [hinokitiol, reference compound] : 956

====

experiment: Mouse 6-hour PK study; conditions: mouse, in vivo
MEASUREMENT TYPE: half-life

// recorded half-life for CC(C)c1cccc(F)c(=O)c1O : 1.25 to 4.99 h

// recorded half-life for Cc1cccc(C(C)C)c(O)c1=O : 5 to 9.99 h

// recorded half-life for O=c1ccccc(OCC2CC2)c1O : < 1.25 h

// recorded half-life for Cc1cc(C(C)C)ccc(O)c1=O : 1.25 to 4.99 h

// recorded half-life for O=c1ccc(OC2COC2)ccc1O : 1.25 to 4.99 h

// recorded half-life for O=c1ccccc([C@@H]2CCCO2)c1O (single isomer, unassigned) : < 1.25 h

// recorded half-life for O=c1ccccc(OC2CC3(CC3)C2)c1O : < 1.25 h

// recorded half-life for O=c1c(F)cccc(C2CCOCC2)c1O : 1.25 to 4.99 h

// recorded half-life for Cc1cccc(F)c(=O)c1O : 1.25 to 4.99 h

// recorded half-life for CCc1cccc(C)c(=O)c1O : 1.25 to 4.99 h

// recorded half-life for O=c1ccccc(OC2CCC2)c1O : < 1.25 h

// recorded half-life for O=c1c(O)cc(C2CC2)ccc1F : 1.25 to 4.99 h

====

test system: DMT1-deficient Caco-2 cells; assay: shDMT1-Caco2 55Fe transport assay; type: cell-based; conditions: Caco-2
Exercise: state measured Caco2 shDMT1 transport FC @ 3 μM, 4 h for each of the compounds provided.

Entry O=c1ccccc(OC2CC3(CC3)C2)c1O [drawing 259] under DMT1-deficient Caco-2 cells had Caco2 shDMT1 transport FC @ 3 μM, 4 h of 1-5

Entry CCc1cccc(F)c(=O)c1O under DMT1-deficient Caco-2 cells had Caco2 shDMT1 transport FC @ 3 μM, 4 h of 0.01-0.5

Entry Cc1ccc(O)c(=O)c(C)c1 under DMT1-deficient Caco-2 cells had Caco2 shDMT1 transport FC @ 3 μM, 4 h of 1-5

Entry Cc1ccc(O)c(=O)c(C(F)(F)F)c1 under DMT1-deficient Caco-2 cells had Caco2 shDMT1 transport FC @ 3 μM, 4 h of 0.01-0.5

Entry O=c1ccccc(OC2CCC2)c1O [drawing 233] under DMT1-deficient Caco-2 cells had Caco2 shDMT1 transport FC @ 3 μM, 4 h of 0.01-0.5

Entry O=c1ccccc(OC2CC(F)(F)C2)c1O under DMT1-deficient Caco-2 cells had Caco2 shDMT1 transport FC @ 3 μM, 4 h of 1-5

Entry Cc1ccc(F)c(=O)c([O-])c1.[Na+] under DMT1-deficient Caco-2 cells had Caco2 shDMT1 transport FC @ 3 μM, 4 h of 0.01-0.5

Entry O=c1ccc([C@@H]2CCC[C@H]2O)ccc1O under DMT1-deficient Caco-2 cells had Caco2 shDMT1 transport FC @ 3 μM, 4 h of 0.01-0.5

Entry Cc1ccc(C(C)C)cc(O)c1=O under DMT1-deficient Caco-2 cells had Caco2 shDMT1 transport FC @ 3 μM, 4 h of 0.5-1

Entry CCOc1cccc(=O)c(O)c1 under DMT1-deficient Caco-2 cells had Caco2 shDMT1 transport FC @ 3 μM, 4 h of 0.5-1

Entry Cc1cccc(Cl)c(=O)c1O under DMT1-deficient Caco-2 cells had Caco2 shDMT1 transport FC @ 3 μM, 4 h of 0.01-0.5

Entry O=c1ccc(C2CCOCC2)ccc1O under DMT1-deficient Caco-2 cells had Caco2 shDMT1 transport FC @ 3 μM, 4 h of 0.01-0.5

Entry O=c1ccccc(C2CCOC2)c1O (stereo not drawn) under DMT1-deficient Caco-2 cells had Caco2 shDMT1 transport FC @ 3 μM, 4 h of 0.01-0.5

Entry O=c1ccc(C2CCC2)ccc1O under DMT1-deficient Caco-2 cells had Caco2 shDMT1 transport FC @ 3 μM, 4 h of 0.01-0.5

Entry CC(C)Oc1cccc(=O)c(O)c1 under DMT1-deficient Caco-2 cells had Caco2 shDMT1 transport FC @ 3 μM, 4 h of 0.5-1

====

assay: Human liver microsomal stability assay; format: in vitro ADME; details: human liver microsomes; read-out: Human t1/2
MEASUREMENT TYPE: half-life (min)
Give the number; min is assumed, so skip it.

// recorded half-life for CC(C)c1cccc(=O)c(O)c1 [hinokitiol, reference compound] : 11.6

====

system: DMT1-deficient Caco-2 cells; test: shDMT1-Caco2 55Fe transport assay; assay type: cell-based; conditions: Caco-2
Exercise: state measured Caco2 shDMT1 transport FC @ 3 μM, 4 h for each of the molecules provided.

Entry O=c1ccccc(OC2COC2)c1O under DMT1-deficient Caco-2 cells had Caco2 shDMT1 transport FC @ 3 μM, 4 h of 0.01-0.5

Entry CC1(C)CCC(c2cccc(=O)c(O)c2)C1 (centres unmarked) under DMT1-deficient Caco-2 cells had Caco2 shDMT1 transport FC @ 3 μM, 4 h of 0.01-0.5

Entry O=c1ccc(C2CC3CC3C2)ccc1O (centres unmarked) under DMT1-deficient Caco-2 cells had Caco2 shDMT1 transport FC @ 3 μM, 4 h of 0.01-0.5

Entry O=c1ccccc(C2CCCO2)c1O (centres unmarked) under DMT1-deficient Caco-2 cells had Caco2 shDMT1 transport FC @ 3 μM, 4 h of 1-5

Entry O=c1c(O)ccccc1F under DMT1-deficient Caco-2 cells had Caco2 shDMT1 transport FC @ 3 μM, 4 h of 0.01-0.5

Entry CCc1cccc(C)c(=O)c1O [drawing 202] under DMT1-deficient Caco-2 cells had Caco2 shDMT1 transport FC @ 3 μM, 4 h of 0.01-0.5

Entry Cc1ccc(C2CC2)cc(O)c1=O under DMT1-deficient Caco-2 cells had Caco2 shDMT1 transport FC @ 3 μM, 4 h of 0.5-1

Entry O=c1c(O)ccc(OC2CCC2)cc1F under DMT1-deficient Caco-2 cells had Caco2 shDMT1 transport FC @ 3 μM, 4 h of 0.01-0.5

Entry CC(C)c1ccc(F)c(=O)c(O)c1F under DMT1-deficient Caco-2 cells had Caco2 shDMT1 transport FC @ 3 μM, 4 h of 0.01-0.5

Entry Cc1ccc(C)c(=O)c(O)c1 under DMT1-deficient Caco-2 cells had Caco2 shDMT1 transport FC @ 3 μM, 4 h of 1-5

Entry O=c1ccc(C2CCCO2)ccc1O (centres unmarked) under DMT1-deficient Caco-2 cells had Caco2 shDMT1 transport FC @ 3 μM, 4 h of 0.01-0.5

Entry CCc1ccc(O)c(=O)c(F)c1 under DMT1-deficient Caco-2 cells had Caco2 shDMT1 transport FC @ 3 μM, 4 h of 0.01-0.5

Entry O=c1ccc(C2CC3CCC(C2)O3)ccc1O (centres unmarked) under DMT1-deficient Caco-2 cells had Caco2 shDMT1 transport FC @ 3 μM, 4 h of 0.01-0.5

Entry CCc1cc(F)ccc(=O)c1O under DMT1-deficient Caco-2 cells had Caco2 shDMT1 transport FC @ 3 μM, 4 h of 1-5

Entry Cc1ccc(O)c(=O)c(F)c1 under DMT1-deficient Caco-2 cells had Caco2 shDMT1 transport FC @ 3 μM, 4 h of 0.01-0.5

Entry O=c1ccccc([C@H]2CCCO2)c1O under DMT1-deficient Caco-2 cells had Caco2 shDMT1 transport FC @ 3 μM, 4 h of 0.1-5

Entry CC(=O)N1CCC(c2ccc(O)c(=O)cc2)CC1 under DMT1-deficient Caco-2 cells had Caco2 shDMT1 transport FC @ 3 μM, 4 h of 0.01-0.5

Entry O=c1cccc(OC2CC2)cc1O under DMT1-deficient Caco-2 cells had Caco2 shDMT1 transport FC @ 3 μM, 4 h of 1-5

Entry Cc1cccc(F)c(=O)c1O [drawing 207] under DMT1-deficient Caco-2 cells had Caco2 shDMT1 transport FC @ 3 μM, 4 h of 0.01-0.5

Entry Cc1ccc(C(F)(F)F)c(=O)c(O)c1 under DMT1-deficient Caco-2 cells had Caco2 shDMT1 transport FC @ 3 μM, 4 h of 0.01-0.5

Entry Cc1c(C2CC2)cccc(=O)c1[O-].[Na+] under DMT1-deficient Caco-2 cells had Caco2 shDMT1 transport FC @ 3 μM, 4 h of 0.5-1

Entry CC(C)c1ccc(F)c(=O)c(O)c1 [drawing 176] under DMT1-deficient Caco-2 cells had Caco2 shDMT1 transport FC @ 3 μM, 4 h of 0.01-0.5

Entry O=c1c(F)cccc(C2CCOCC2)c1O [drawing 211] under DMT1-deficient Caco-2 cells had Caco2 shDMT1 transport FC @ 3 μM, 4 h of 0.01-0.5

Entry Cc1cc(C2CC2)ccc(O)c1=O under DMT1-deficient Caco-2 cells had Caco2 shDMT1 transport FC @ 3 μM, 4 h of 1-5

Entry O=c1ccc(OC2COC2)ccc1O [drawing 187] under DMT1-deficient Caco-2 cells had Caco2 shDMT1 transport FC @ 3 μM, 4 h of 0.01-0.5

Entry O=c1c(O)cc(C2CC2)ccc1F [drawing 209] under DMT1-deficient Caco-2 cells had Caco2 shDMT1 transport FC @ 3 μM, 4 h of 0.01-0.5

Entry CCc1cccc(Cl)c(=O)c1O under DMT1-deficient Caco-2 cells had Caco2 shDMT1 transport FC @ 3 μM, 4 h of 0.01-0.5

Entry CC(C)c1cccc(=O)c(O)c1F [drawing 177] under DMT1-deficient Caco-2 cells had Caco2 shDMT1 transport FC @ 3 μM, 4 h of 0.01-0.5

Entry O=c1cccc(O[C@@H]2CCOC2)cc1O (stereo in doubt) under DMT1-deficient Caco-2 cells had Caco2 shDMT1 transport FC @ 3 μM, 4 h of 0.01-0.5

Reference source for all entries: patent US20230406803A1
